Data provenance is patent US20260108546A1.

- Tested on: hGIP-R (Homo sapiens, UniProt P48546)
- Construct: expressed in transfected cells; host or cells: HEK-293 clonal cell lines
- Method summary: Functional hGIP-R Assay (cAMP formation, HTRF)
- Type: cell-based
- Details: cAMP potency; HEK-293 cells expressing hGIP-R; incubated at 37° C. in the presence of 0.1% bovine casein; geometric mean; read-out: Human GIP-R EC50, nM (SEM, n)
Quantity measured: EC50 (nM)

COCc1cn2cc(-c3ccc([C@H]4C[C@@]45CCN([C@H](Cc4cnn(C(F)F)c4)C(=O)NC(C)(C)Cn4nc(C(F)(F)F)cc4-c4cncc(C)n4)C5=O)c(C)n3)cnc2n1    14.4

A: Cc1cn2cc(-c3ccc([C@H]4C[C@@H]4C(=O)N(C)[C@H](Cc4cnn(C)c4)C(=O)NC(C)(C)Cn4nc(C(F)(F)F)cc4-c4ccc(=O)n(C)c4)cc3)cnc2n1
B: [2H]C([2H])([2H])N(C(=O)[C@H]1C[C@@H]1c1ccc(-c2cnc3nn(C)cc3c2)nc1C(F)(F)F)[C@H](Cc1cnn(C(F)F)c1)C(=O)NC(C)(C)Cn1nc(C(F)(F)F)cc1-c1cc(F)c(=O)n(C)c1
C: Cn1cc2cc(-c3ccc([C@H]4C[C@@]45CCN([C@H](Cc4cnn(C(F)F)c4)C(=O)NC(C)(C)Cn4nc(C(F)(F)F)cc4-c4ccn(C6CC6)c(=O)n4)C5=O)c(Cl)c3)cnc2n1
Query block: Sequence the entries by EC50, beginning with the highest number. Labels, ranked as asked.
Result block: A, B, C

###

- Tested on: hGIP-R (Homo sapiens, UniProt P48546)
- Construct: expressed in transfected cells; host or cells: HEK-293 clonal cell lines
- Sequence (P48546 22-466): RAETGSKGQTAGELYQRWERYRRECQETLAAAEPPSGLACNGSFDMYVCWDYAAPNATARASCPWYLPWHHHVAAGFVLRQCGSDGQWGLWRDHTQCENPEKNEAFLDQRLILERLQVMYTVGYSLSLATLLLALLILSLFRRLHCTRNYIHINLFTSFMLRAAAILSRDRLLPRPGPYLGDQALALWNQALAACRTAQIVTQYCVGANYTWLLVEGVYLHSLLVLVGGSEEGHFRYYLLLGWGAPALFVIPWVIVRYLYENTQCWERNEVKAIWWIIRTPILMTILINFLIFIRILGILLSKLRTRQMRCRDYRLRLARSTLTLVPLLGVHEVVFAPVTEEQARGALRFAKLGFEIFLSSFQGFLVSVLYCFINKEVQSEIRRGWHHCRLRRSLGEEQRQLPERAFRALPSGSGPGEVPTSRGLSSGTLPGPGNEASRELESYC
- Method summary: Functional hGIP-R Assay (cAMP formation, HTRF)
- Type: cell-based
- Details: cAMP potency; HEK-293 cells expressing hGIP-R; incubated at 37° C. in the presence of 0.1% bovine casein; geometric mean; read-out: Human GIP-R EC50, nM (SEM, n)
Quantity measured: EC50 (nM)

# count of solved cases: 4
CC(C)(Cn1cc(C(F)(F)F)cn1)NC(=O)[C@@H](Cc1cnc2ncccn12)NC(=O)[C@H]1C[C@@H]1c1ccc(-c2cnc3nc(C4CC4)cn3c2)cc1    16.2
Cn1cc(-c2cc(C(F)(F)F)nn2CC(C)(C)NC(=O)[C@@H](Cc2cnn(C(F)F)c2)N2CC[C@@]3(C[C@@H]3c3ccc(-c4cnc5nn(CCO)cc5c4)cc3F)C2=O)cc(F)c1=O (single isomer, unassigned; isomer 1)    36.2
Cc1nc(-c2cnc3nc(C4CC4)cn3c2)ccc1[C@H]1C[C@@]12CCN([C@H](Cc1cnn(C(F)F)c1)C(=O)NC(C)(C)Cn1nc(C(F)(F)F)cc1-c1cnc(C(C)(C)OP(=O)(O)O)nc1)C2=O    0.601
[2H]C([2H])([2H])n1cc(C[C@H](C(=O)NC(C)(C)Cn2nc(C(F)(F)F)cc2-c2ccc(C(C)(C)O)nc2)N2CC[C@@]3(C[C@@H]3c3ccc(-c4cnc5nn(C)cc5c4)cc3Cl)C2=O)cn1    0.567

a: Cc1cn2cc(-c3ccc([C@H]4C[C@@]45CCN([C@H](Cc4cnn(C(F)F)c4)C(=O)NC(C)(C)Cn4nc(C(F)(F)F)cc4-c4ccc(C(C)(C)O)nc4)C5=O)c(C)n3)cnc2n1
b: Cn1cc2cc(-c3ccc([C@H]4C[C@@H]4C(=O)N[C@H](Cc4cnc5ncccn45)C(=O)NC(C)(C)Cn4nc(C(F)(F)F)cc4C4CC4)cc3)cnc2n1
Query block: // returns a or b , whichever has the lower EC50 Write the label of whichever entry you select.
Result block: a

P: Cn1cc(C[C@@H](NC(=O)C2CC2(C)c2ccc(-c3cnc4nn(C)cc4c3)cc2)C(=O)NC(C)(C)Cn2cc(C(F)(F)F)cn2)cn1 (single isomer, unassigned; isomer 4)
Q: CN(C(=O)[C@H]1C[C@@H]1c1ccc(-c2cnc3nn(C)cc3c2)cc1)[C@H](Cc1cnn(C)c1)C(=O)NC(C)(C)Cn1nc(C(F)(F)F)cc1-c1cn[nH]n1
Query block: Hi there! Just curious which has the higher EC50 between P and Q . Choose, then provide that item's label.
Result block: Q
(Q: 158 nM, P: 55.2 nM)

A: Cn1cc2cc(-c3ccc([C@H]4C[C@@]45CCN([C@H](Cc4cnn(C(F)F)c4)C(=O)NC(C)(C)Cn4nc(C(F)(F)F)cc4-c4ccc(C#N)nc4)C5=O)cc3)cnc2n1
B: CC(=O)N1CCN(c2ccc(C3CC34CCN([C@H](Cc3cnn(C(F)F)c3)C(=O)NC(C)(C)Cn3nc(C(F)(F)F)cc3-c3cnc(C)nc3)C4=O)c(C(F)(F)F)n2)CC1 (single isomer, unassigned; isomer 1)
Query block: Return label of the item with the larger EC50. Candidates: A , B . Mark your selection by writing its label.
Result block: B

###

- Tested on: hGIP-R (Homo sapiens, UniProt P48546)
- Construct: expressed in transfected cells; host or cells: HEK-293 clonal cell lines
- Method summary: Functional hGIP-R Assay (cAMP formation, HTRF)
- Assay type: cell-based
- Details: cAMP potency; HEK-293 cells expressing hGIP-R; incubated at 37° C. in the presence of 0.1% bovine casein; geometric mean; read-out: Human GIP-R EC50, nM (SEM, n)
Quantity measured: EC50 (nM)

Cn1cc2cc(-c3ccc([C@H]4C[C@@]45CCN([C@H](Cc4cnn(C(F)F)c4)C(=O)NC(C)(C)Cn4nc(C(F)(F)F)cc4-c4cccn(CC(N)=O)c4=O)C5=O)cc3)cnc2n1    42.3

A: CC(C)(Cn1cc(C(F)(F)F)cn1)NC(=O)[C@@H](Cc1cnc2ncccn12)NC(=O)[C@H]1C[C@@H]1c1ccc(-c2cnc3nn(C4CCC4)cc3c2)cc1
B: CC(C)(Cn1cc(C(F)(F)F)cn1)NC(=O)[C@@H](Cc1cnc2ncccn12)NC(=O)[C@H]1C[C@@H]1c1ccc(-c2cnc3nn(CC4CCC4)cc3c2)cc1
C: Cn1cc(C[C@@H](NC(=O)[C@H]2C[C@@H]2c2ccc(-c3cnc4nn(C)cc4c3)cc2)C(=O)NC(C)(C)Cn2nc(C(F)(F)F)cc2-c2cn[nH]c2)cn1
D: Cc1nc(-c2cnc3nc(C4CC4)cn3c2)ccc1[C@H]1C[C@@]12CCN([C@H](Cc1cnn(C(F)F)c1)C(=O)NC(C)(C)Cn1nc(C(F)(F)F)cc1-c1ccc(C(C)(C)OP(=O)(O)O)nc1)C2=O
E: CC(C)(Cn1nc(C(F)(F)F)cc1C1CC1)NC(=O)[C@@H](Cc1cnc2ncccn12)NC(=O)[C@H]1C[C@@H]1c1ccc(NC(=O)C2CC(F)(F)C2)cc1
Query block: I would appreciate it if you could sort these 5 compounds by EC50, starting from the smallest number. Enter labels, ranked according to the request.
Result block: D, E, C, A, B
(D: 0.66 nM, E: 3.55 nM, C: 20.2 nM, A: 37.8 nM, B: 88.2 nM)
